- Target of assay: hOX2R (Homo sapiens, UniProt O43614)
- Construct: expressed in transfected cells
- Sequence (O43614 whole entry): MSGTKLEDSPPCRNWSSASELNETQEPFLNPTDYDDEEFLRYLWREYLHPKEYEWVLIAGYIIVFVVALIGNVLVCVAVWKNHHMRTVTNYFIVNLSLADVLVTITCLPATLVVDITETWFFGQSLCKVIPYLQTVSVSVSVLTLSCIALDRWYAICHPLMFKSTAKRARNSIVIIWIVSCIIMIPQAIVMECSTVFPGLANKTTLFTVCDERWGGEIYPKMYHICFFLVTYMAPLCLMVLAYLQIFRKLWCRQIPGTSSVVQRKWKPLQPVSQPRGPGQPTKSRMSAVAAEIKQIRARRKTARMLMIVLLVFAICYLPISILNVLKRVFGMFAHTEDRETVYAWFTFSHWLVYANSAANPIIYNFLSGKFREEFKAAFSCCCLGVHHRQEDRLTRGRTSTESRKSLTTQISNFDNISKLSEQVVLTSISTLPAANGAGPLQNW
- Assay protocol: In vitro test of OX2R: calcium signal change in cells detected with FLIPR
- Type: cell-based
- Stated conditions: HEK293-OX2 stable cell strain, Fluo-4 AM calcium signal, Orexin A at EC70; read-out: IC50 detected in FLIPR, hOX2R
pIC50: −log10 of the molar value.

# Compound, Target of assay, pIC50
records = [
    ("O=C(c1cc(Cl)ccc1-n1ccnn1)N1C2CC[C@H]1CC[C@@H]2COc1ccc(F)cn1 [Example 19]", "hOX2R (Homo sapiens, UniProt O43614)", 6.43),
    ("Cc1ccc(-n2nccn2)c(C(=O)N2C3CCC(COc4ccc(F)cn4)C2CC3)c1 (single isomer, unassigned) [Example 4]", "hOX2R (Homo sapiens, UniProt O43614)", 6.71),
    ("Cc1ccc(-c2ccccn2)c(C(=O)N2C3CC[C@H]2CC[C@@H]3COc2ccc(F)cn2)c1 [Example 11]", "hOX2R (Homo sapiens, UniProt O43614)", 6.44),
    ("Cc1cccc(C(=O)N2C3CC[C@H]2CC[C@@H]3COc2ccc(F)cn2)c1 [Example 21]", "hOX2R (Homo sapiens, UniProt O43614)", 6.13),
]

---

- Target of assay: hOX1R (Homo sapiens, UniProt O43613)
- Construct: expressed in transfected cells
- Sequence (O43613 1-425): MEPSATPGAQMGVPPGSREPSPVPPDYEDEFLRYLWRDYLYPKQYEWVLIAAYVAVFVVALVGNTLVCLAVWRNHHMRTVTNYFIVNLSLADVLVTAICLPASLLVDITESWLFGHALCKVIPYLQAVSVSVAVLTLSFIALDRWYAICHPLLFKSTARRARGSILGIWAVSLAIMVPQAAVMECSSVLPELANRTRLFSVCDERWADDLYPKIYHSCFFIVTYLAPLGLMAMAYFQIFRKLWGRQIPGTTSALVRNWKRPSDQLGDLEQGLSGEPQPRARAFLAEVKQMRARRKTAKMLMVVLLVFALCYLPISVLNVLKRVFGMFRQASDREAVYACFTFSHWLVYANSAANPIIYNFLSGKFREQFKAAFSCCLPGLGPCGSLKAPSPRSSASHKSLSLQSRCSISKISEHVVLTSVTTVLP
- Assay protocol: In vitro test of OX1R: calcium signal change in cells detected with FLIPR
- Format: cell-based
- Stated conditions: HEK293-OX1 stable cell strain, Fluo-4 AM calcium signal, Orexin A at EC70; read-out: IC50 detected in FLIPR, hOX1R

# Molecule, IC50 (nM)
measured = [
    ("Cc1ccc(-c2ncccn2)c(C(=O)N2C3CC[C@H]2CC[C@@H]3COc2ccncc2)c1", 7),
    ("Cc1cccc(C(=O)N2C3CC[C@H]2CC[C@@H]3COc2ccc(F)cn2)c1", 567),
    ("Cc1ccc(-n2nccn2)c(C(=O)N2C3CCC(COc4ccc(F)cn4)C2CC3)c1 (single isomer, unassigned) [Example 3]", 2070),
    ("Cc1ccc(-c2ccccn2)c(C(=O)N2C3CC[C@H]2CC[C@@H]3COc2ccc(F)cn2)c1", 321),
]

---

Quick reference: pIC50 of the listed items.
- Target of assay: hOX2R (Homo sapiens)
- Construct: expressed in transfected cells
- Assay protocol: In vitro test of OX2R: calcium signal change in cells detected with FLIPR
- Assay type: cell-based
- Stated conditions: HEK293-OX2 stable cell strain, Fluo-4 AM calcium signal, Orexin A at EC70; read-out: IC50 detected in FLIPR, hOX2R
- Experimental: The inhibitive effect of a compound on OX1 and OX2 GPCR receptor was evaluated by detecting calcium signal change in cells with FLIPR, and IC50 value of compound was used as an indication. […] c) FLIPR Experiment: • 1) The cell culture medium in 384-well plate was washed away with a vacuum pump. […] The program was run and the fluorescence values were read. d) Data Analysis: Prism5.0 was used to analysis the data, and the IC50 value of the compound was calculated.
pIC50: −log10 of the molar value.

# Compound, Target of assay, pIC50
records = [
    ("Cc1ccc(-c2ncccn2)c(C(=O)N2C3CCC2C(F)(COc2ccc(F)cn2)CC3)c1 (stereo not shown)", "hOX2R (Homo sapiens)", 7.43),
    ("Cc1ccc(C)c(C(=O)N2C3CC[C@H]2CC[C@@H]3OCc2ccc(F)cn2)c1", "hOX2R (Homo sapiens)", 6.71),
    ("Cc1ccc(-c2ncccn2)c(C(=O)N2C3CCC(COc4ccc(F)cn4)C2CC3)c1 (single isomer, unassigned) [Example 7]", "hOX2R (Homo sapiens)", 6.54),
    ("Cc1ccc(-c2ncccn2)c(C(=O)N2C3CCC(COc4ncc(Cl)cc4F)C2CC3)c1 (stereo not shown)", "hOX2R (Homo sapiens)", 6.91),
    ("Cc1ccc(-c2ncccn2)c(C(=O)N2C3CC[C@H](COc4ccc(F)cn4)[C@@H]2CC3)c1", "hOX2R (Homo sapiens)", 5.38),
    ("Cc1ccc(-c2ncccn2)c(C(=O)N2C[C@H](COc3ccc(F)cn3)CC[C@H]2C)c1 [MK6096, reference compound]", "hOX2R (Homo sapiens)", 7.54),
    ("O=C(c1cc(F)ccc1-c1ncccn1)N1C2CC[C@H]1CC[C@@H]2COc1ccc(F)cn1", "hOX2R (Homo sapiens)", 7.33),
]
